tested on: Ramos; assay: CellTiter-Glo Luminescent cell viability assay; format: cell-based; details: cell survival, 72 hours
readout label: pEC50
Quick note: pEC50 means taking -log10 of the concentration in moles per liter.

In the examples that follow, each entry is paired with its recorded pEC50.
C=CC(=O)N1CCCCC(Nc2nccc(Nc3nc4ccc(Oc5ccccc5)nc4s3)n2)C1 (centres unmarked) = 5.57
C=CC(=O)N1CCCCC(Nc2nccc(Nc3ncc(C(=O)Nc4c(C)cccc4C)s3)n2)C1 (centres unmarked) = 6.88
C=CC(=O)N1CCC[C@@H](Nc2nccc(Nc3nc4ccc(Oc5ccccc5)nc4s3)n2)C1 = 5.66

// query State its pEC50 for this compound: C=CC(=O)N1CCC(CNc2nccc(Nc3ncc(C(=O)Nc4c(C)cccc4C)s3)n2)C1 (centres unmarked)
// result 5.10

// query State its pEC50 for this compound: C=CC(=O)N1CCCCC(Nc2nccc(Nc3ncc(C(=O)Nc4c(C)cccc4Cl)s3)n2)C1 (centres unmarked)
// result 5.80
